B1: E3 ubiquitin-protein ligase NEDD4, residues 836 to 881; numbered along this chain, P46934 (parent)
chain: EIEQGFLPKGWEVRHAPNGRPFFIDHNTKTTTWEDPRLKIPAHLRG

# Variants of: B1
# Experiment: abundance fitness (aPCA) (normalised: wild type 0, dead -1); higher = more abundant; growth selection in yeast, the domain comes from the species named
# Settings: Homo sapiens
Experimental readout: abundance fitness
Give bare numbers.

Some variants with recorded abundance fitness:
INSERT INTO measurements (mutation_name, experimental_readout, recorded_result) VALUES
  ('P41L', 'abundance fitness', -0.469),
  ('L44C', 'abundance fitness', 0.004),
  ('R37M', 'abundance fitness', -0.364);

Parameters: items (list). Returns: abundance fitness for each item.
1. P21W
2. K29S

## Result
1. -0.402
2. -0.231

Parameters: items (list). Returns: abundance fitness for each item.
1. D25Q
2. R37A
3. P41H
4. A42D
5. K39I
6. R20W
7. F22T
8. D25C

## Result
1: -0.951; 2: -0.567; 3: 0.051; 4: -0.111; 5: -0.297; 6: -0.946; 7: -0.536; 8: -0.447

Parameters: items (list). Returns: abundance fitness for each item.
1. T32W
2. R37I
3. T31F
4. D25V
5. K29I
6. D25G

## Result
1. -0.807
2. -0.75
3. -0.42
4. -0.981
5. -0.954
6. -0.836

Parameters: items (list). Returns: abundance fitness for each item.
1. F23D
2. P36M
3. L38V

## Result
1: -0.679; 2: -1.06; 3: -0.051
